assay: chemical genetic growth profiling, strain panel (AID 1159580);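 further: tested at 20 µM; growth read once vehicle control cultures reached saturation at 30 °C; 1 = growth at the plate median or of vehicle wells; lower values mean less growth of the strain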; conditions: S. cerevisiae deletion strains, growth OD, locus YNL307C, strain MCK1 (second series)
In all, about 5,500 compounds went through this assay and about 2,000 (36%) were called active. Another 18% or so got no clear call; they are omitted. No stated cut-off is given here; in the data, active means normalized growth mostly below about 0.91 (no sharp cut-off); inconclusive means no clear call, values can overlap the other calls; inactive means mostly above about 0.92. Some of the results follow.
Parameter call: string, one of 1 (active), 0 (inactive)

Take a look at these entries with their results.
{"columns": ["molecule", "answerLabel"],
 "data": [
  ["OC(COc1ccc(F)cc1)(c1ccc(Cl)cc1)c1ccc(Cl)cc1", 0],
  ["CC(C)(C)c1cc(C(=O)NNc2cccc(Cl)c2)n(Cc2ccccc2)n1", 0],
  ["Cc1ccc2nc(-c3ccc4c(c3)OCCO4)cn2c1", 0]
]}

What was the test verdict on "O=S(=O)(Nc1ccccc1Oc1ccccc1)c1ccc(-c2ccno2)s1" ? 0

What was the test verdict on "COC(=O)c1sccc1NS(=O)(=O)c1cc(Cl)cc(Cl)c1" ? 0

What was the test verdict on "CC(C)(C)c1cc(C(=O)Nc2ccc3c(c2)OCO3)n(Cc2ccc(F)cc2)n1" ? 0

What was the test verdict on "O=C(NOC(=O)c1ccccc1)c1ccccc1" ? 1

What was the test verdict on "O=C1c2cccc3c(Sc4ccccc4)ccc(c23)C(=O)N1NCCO" ? 0

What was the test verdict on "N#CSCC(=O)c1ccccc1" ? 1

What was the test verdict on O=C(CSC1=NNC(c2ccccn2)S1)Nc1ccccc1 (configuration not stated) ? 0

What was the test verdict on "Clc1ccc(CN2CCN(c3cccc4[nH]ccc34)CC2)cc1Cl" ? 0

What was the test verdict on C#CCSC1=NNC(c2ccccn2)S1 (configuration not stated) ? 1

====

We begin with a simple list: items and their reported normalized growth.
experiment: chemical genetic growth profiling, strain panel (AID 1159580);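 further: tested at 20 µM; growth read once vehicle control cultures reached saturation at 30 °C; 1 = growth at the plate median or of vehicle wells; lower values mean less growth of the strain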; details: S. cerevisiae deletion strains, growth OD, locus YEL037C, strain rad23, active compounds read low
The campaign covered roughly 5,500 compounds. About 2,000 (36%) were called active. Inconclusive results (about 18%) are left out. This is one part of the list.
Answer as a number with no unit attached.

Examples from the recorded data:
{"columns": ["molecule", "normalized growth"],
 "data": [
  ["O=P1(NCCCl)OCCCN1CCCl (stereo not given)", 0.95],
  ["COC1CC2CCC(C)C(O)(O2)C(=O)C(=O)N2CCCCC2C(=O)OC(C(C)CC2CCC(O)C(OC)C2)CC(=O)C(C)/C=C(\\C)C(O)C(OC)C(=O)C(C)CC(C)/C=C/C=C/C=C/1C (stereo not given)", 0.06],
  ["CN(C)C(=O)Oc1cccc([N+](C)(C)C)c1", 0.998],
  ["NS(=O)(=O)c1cc2c(cc1Cl)NC(CSCc1ccccc1)=NS2(=O)=O", 1.02],
  ["CC(=O)O[C@@H]1CC2C(C)(C)[C@H](O)C=C[C@]2(C)C2CC[C@]3(C)C(=CC(=O)O[C@H]3c3ccoc3)[C@@]21C (stereo not given in full)", 0.984]
]}

Lab note: measured normalized growth of NC(Cn1ccc(=O)c(O)c1)C(=O)O (stereo not given) was 1.02

Lab note: measured normalized growth of "CC(C)=CCc1c2c(c3occ(-c4ccc(O)cc4)c(=O)c3c1O)C=CC(C)(C)O2" was 0.958

Lab note: measured normalized growth of CCC(C)C(=O)OC1[C@@H]2CC3=C4CC(=O)O[C@@H](c5ccoc5)[C@]4(C)CCC3[C@@](C)(C2=O)[C@@H](CC(=O)OC)C1(C)C (stereo not given in full) was 1.01
